# method-description: 4×4 Latin square comparison of i.v., oral and suppository administration (GC/MS plasma levels)
# stated-conditions: monkey, plasma, iv, 0.5 mg/kg
The reader will find reported concentration at 0.5 h values listed item by item below.
Kindly provide the numeric value in ng/mL only, without the unit symbol.

> print(dat)
                                   compound            test.readout  recorded.number
1  CCCCCc1cc(OC(=O)CCC(=O)O)c2c(c1)OC(C)(C)[C@@H]1CCC(C)=C[C@@H]21  concentration at 0.5 h              251

Here is the next item to consider.
Form field concentration at 0.5 h, entry CCCCCc1cc(O)c2c(c1)OC(C)(C)[C@@H]1CCC(C)=C[C@@H]21 [delta-9-tetrahydrocannabinol] : 170

====

# method-description: 4×4 Latin square comparison of i.v., oral and suppository administration (GC/MS plasma levels)
# stated-conditions: monkey, plasma, iv, 0.5 mg/kg
test-readout: concentration at 24 h (ng/mL)
Kindly provide the numeric value in ng/mL only, without the unit symbol.

> print(dat)
                                   compound  recorded.number
1  CCCCCc1cc(OC(=O)CCC(=O)O)c2c(c1)OC(C)(C)[C@@H]1CCC(C)=C[C@@H]21              2.5

Form field concentration at 24 h, entry CCCCCc1cc(O)c2c(c1)OC(C)(C)[C@@H]1CCC(C)=C[C@@H]21 [delta-9-tetrahydrocannabinol] : 2.5

====

# method-description: 4×4 Latin square comparison of i.v., oral and suppository administration (GC/MS plasma levels)
# stated-conditions: monkey, plasma
test-readout: concentration at 0.25 h (ng/mL)
Kindly provide the numeric value in ng/mL only, without the unit symbol.

Form field concentration at 0.25 h, entry CCCCCc1cc(OC(=O)CCC(=O)O)c2c(c1)OC(C)(C)[C@@H]1CCC(C)=C[C@@H]21 : 14.8

====

# method-description: 4×4 Latin square comparison of i.v., oral and suppository administration (GC/MS plasma levels)
# stated-conditions: monkey, plasma, iv, 0.5 mg/kg
test-readout: concentration at 1 h (ng/mL)
Kindly provide the numeric value in ng/mL only, without the unit symbol.

> print(dat)
                                   compound          test.readout  recorded.number
1  CCCCCc1cc(OC(=O)CCC(=O)O)c2c(c1)OC(C)(C)[C@@H]1CCC(C)=C[C@@H]21  concentration at 1 h             95.8

Here is the next item to consider.
Form field concentration at 1 h, entry CCCCCc1cc(O)c2c(c1)OC(C)(C)[C@@H]1CCC(C)=C[C@@H]21 [delta-9-tetrahydrocannabinol] : 102

====

# method-description: 4×4 Latin square comparison of i.v., oral and suppository administration (GC/MS plasma levels)
# stated-conditions: monkey, plasma, iv, 0.5 mg/kg
test-readout: concentration at 2 h (ng/mL)
Kindly provide the numeric value in ng/mL only, without the unit symbol.

> print(dat)
                                   compound  recorded.number
1  CCCCCc1cc(OC(=O)CCC(=O)O)c2c(c1)OC(C)(C)[C@@H]1CCC(C)=C[C@@H]21             42.5

Here is the next item to consider.
Form field concentration at 2 h, entry CCCCCc1cc(O)c2c(c1)OC(C)(C)[C@@H]1CCC(C)=C[C@@H]21 [delta-9-tetrahydrocannabinol] : 55.8

====

# method-description: 4×4 Latin square comparison of i.v., oral and suppository administration (GC/MS plasma levels)
# stated-conditions: monkey, plasma
test-readout: concentration at 1 h
Could you give the number and then its unit, please?

Form field concentration at 1 h, entry CCCCCc1cc(OC(=O)CCC(=O)O)c2c(c1)OC(C)(C)[C@@H]1CCC(C)=C[C@@H]21 : 46 ng/mL

====

# method-description: 4×4 Latin square comparison of i.v., oral and suppository administration (GC/MS plasma levels)
# stated-conditions: monkey, plasma
test-readout: concentration at 4 h
Could you give the number and then its unit, please?

Form field concentration at 4 h, entry CCCCCc1cc(OC(=O)CCC(=O)O)c2c(c1)OC(C)(C)[C@@H]1CCC(C)=C[C@@H]21 : 0.038 µg/mL

====

# method-description: 4×4 Latin square comparison of i.v., oral and suppository administration (GC/MS plasma levels)
# stated-conditions: monkey, plasma, po, 10 mg
test-readout: concentration at 6 h (ng/mL)
Kindly provide the numeric value in ng/mL only, without the unit symbol.

Form field concentration at 6 h, entry CCCCCc1cc(O)c2c(c1)OC(C)(C)[C@@H]1CCC(C)=C[C@@H]21 [delta-9-tetrahydrocannabinol] : 2.3

====

# method-description: 4×4 Latin square comparison of i.v., oral and suppository administration (GC/MS plasma levels)
# stated-conditions: monkey, plasma
test-readout: concentration at 2 h

Form field concentration at 2 h, entry CCCCCc1cc(OC(=O)CCC(=O)O)c2c(c1)OC(C)(C)[C@@H]1CCC(C)=C[C@@H]21 : 53.3 ng/mL

====

The reader will find reported concentration at 3 h values listed item by item below.
# method-description: 4×4 Latin square comparison of i.v., oral and suppository administration (GC/MS plasma levels)
# stated-conditions: monkey, plasma, iv, 0.5 mg/kg
Could you give the number and then its unit, please?

> print(dat)
                                   compound    result
1  CCCCCc1cc(O)c2c(c1)OC(C)(C)[C@@H]1CCC(C)=C[C@@H]21 [delta-9-tetrahydrocannabinol]  34 ng/mL

Form field concentration at 3 h, entry CCCCCc1cc(OC(=O)CCC(=O)O)c2c(c1)OC(C)(C)[C@@H]1CCC(C)=C[C@@H]21 : 26.3 ng/mL

====

# method-description: 4×4 Latin square comparison of i.v., oral and suppository administration (GC/MS plasma levels)
# stated-conditions: monkey, plasma
test-readout: concentration at 8 h (ng/mL)
Kindly provide the numeric value in ng/mL only, without the unit symbol.

Form field concentration at 8 h, entry CCCCCc1cc(OC(=O)CCC(=O)O)c2c(c1)OC(C)(C)[C@@H]1CCC(C)=C[C@@H]21 : 12.8

====

# method-description: 4×4 Latin square comparison of i.v., oral and suppository administration (GC/MS plasma levels)
# stated-conditions: monkey, plasma
test-readout: concentration at 6 h (ng/mL)
Kindly provide the numeric value in ng/mL only, without the unit symbol.

Form field concentration at 6 h, entry CCCCCc1cc(OC(=O)CCC(=O)O)c2c(c1)OC(C)(C)[C@@H]1CCC(C)=C[C@@H]21 : 18.5

====

# method-description: 4×4 Latin square comparison of i.v., oral and suppository administration (GC/MS plasma levels)
# stated-conditions: monkey, plasma
test-readout: concentration at 3 h

Form field concentration at 3 h, entry CCCCCc1cc(OC(=O)CCC(=O)O)c2c(c1)OC(C)(C)[C@@H]1CCC(C)=C[C@@H]21 : 50 ng/mL

====

# method-description: 4×4 Latin square comparison of i.v., oral and suppository administration (GC/MS plasma levels)
# stated-conditions: monkey, plasma, po, 10 mg
test-readout: concentration at 4 h

Form field concentration at 4 h, entry CCCCCc1cc(O)c2c(c1)OC(C)(C)[C@@H]1CCC(C)=C[C@@H]21 [delta-9-tetrahydrocannabinol] : 1.3 ng/mL

====

The reader will find reported concentration at 6 h values listed item by item below.
# method-description: 4×4 Latin square comparison of i.v., oral and suppository administration (GC/MS plasma levels)
# stated-conditions: monkey, plasma, iv, 0.5 mg/kg
Kindly provide the numeric value in ng/mL only, without the unit symbol.

> print(dat)
                                   compound  recorded.number
1  CCCCCc1cc(OC(=O)CCC(=O)O)c2c(c1)OC(C)(C)[C@@H]1CCC(C)=C[C@@H]21               13

Here is the next item to consider.
Form field concentration at 6 h, entry CCCCCc1cc(O)c2c(c1)OC(C)(C)[C@@H]1CCC(C)=C[C@@H]21 [delta-9-tetrahydrocannabinol] : 29

====

# method-description: 4×4 Latin square comparison of i.v., oral and suppository administration (GC/MS plasma levels)
# stated-conditions: monkey, plasma
test-readout: concentration at 0.5 h (ng/mL)
Kindly provide the numeric value in ng/mL only, without the unit symbol.

Form field concentration at 0.5 h, entry CCCCCc1cc(OC(=O)CCC(=O)O)c2c(c1)OC(C)(C)[C@@H]1CCC(C)=C[C@@H]21 : 33.5

====

# method-description: 4×4 Latin square comparison of i.v., oral and suppository administration (GC/MS plasma levels)
# stated-conditions: monkey, plasma, iv, 0.5 mg/kg
test-readout: concentration at 8 h (ng/mL)
Kindly provide the numeric value in ng/mL only, without the unit symbol.

> print(dat)
                                   molecule  recorded.number
1  CCCCCc1cc(O)c2c(c1)OC(C)(C)[C@@H]1CCC(C)=C[C@@H]21 [delta-9-tetrahydrocannabinol]             17.3

Form field concentration at 8 h, entry CCCCCc1cc(OC(=O)CCC(=O)O)c2c(c1)OC(C)(C)[C@@H]1CCC(C)=C[C@@H]21 : 8
